biological target: PtmO5 (Streptomyces platensis, UniProt D8L2V0); assay: type I binding spectra; details: heme site, poor solubility of 4
Sequence (D8L2V0 1-430): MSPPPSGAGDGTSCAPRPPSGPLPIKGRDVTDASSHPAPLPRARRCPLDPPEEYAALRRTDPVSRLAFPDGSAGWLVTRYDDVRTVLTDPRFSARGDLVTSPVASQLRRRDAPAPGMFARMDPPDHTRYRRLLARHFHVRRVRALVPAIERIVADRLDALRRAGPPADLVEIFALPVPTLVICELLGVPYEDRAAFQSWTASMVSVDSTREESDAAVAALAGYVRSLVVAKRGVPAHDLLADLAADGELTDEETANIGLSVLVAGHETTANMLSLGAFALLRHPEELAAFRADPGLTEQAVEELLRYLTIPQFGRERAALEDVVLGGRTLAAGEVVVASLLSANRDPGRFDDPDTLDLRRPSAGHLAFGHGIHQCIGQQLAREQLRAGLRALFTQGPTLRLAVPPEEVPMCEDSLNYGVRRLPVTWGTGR
pKd: −log10 of the molar value.

- record smiles: "C=C1C[C@@]23CC[C@H]4[C@@](C)(CCC[C@@]4(C)C(=O)O)[C@@H]2CC[C@@H]1C3"
  study system: "PtmO5 (Streptomyces platensis, UniProt D8L2V0)"
  pKd: 6.12
